target-of-assay: T1, PCSK9Δhelix (human, Chemically biotinylated in the phage ELISAs; the site is not given.)
T1 construct: construct M1-Q692 with engineered TEV site, cleaved by TEV; also called His-PCSK9Δhelix; open groove PCSK9Δhelix
T1 sequence (prodomain, as listed by the source mutant limits assumed, chain 1 of 2): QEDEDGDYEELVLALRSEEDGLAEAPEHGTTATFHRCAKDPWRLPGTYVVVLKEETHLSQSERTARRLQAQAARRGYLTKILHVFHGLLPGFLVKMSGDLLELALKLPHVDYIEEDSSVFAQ
T1 sequence (chain, as listed by the source mutant limits assumed, chain 2 of 2): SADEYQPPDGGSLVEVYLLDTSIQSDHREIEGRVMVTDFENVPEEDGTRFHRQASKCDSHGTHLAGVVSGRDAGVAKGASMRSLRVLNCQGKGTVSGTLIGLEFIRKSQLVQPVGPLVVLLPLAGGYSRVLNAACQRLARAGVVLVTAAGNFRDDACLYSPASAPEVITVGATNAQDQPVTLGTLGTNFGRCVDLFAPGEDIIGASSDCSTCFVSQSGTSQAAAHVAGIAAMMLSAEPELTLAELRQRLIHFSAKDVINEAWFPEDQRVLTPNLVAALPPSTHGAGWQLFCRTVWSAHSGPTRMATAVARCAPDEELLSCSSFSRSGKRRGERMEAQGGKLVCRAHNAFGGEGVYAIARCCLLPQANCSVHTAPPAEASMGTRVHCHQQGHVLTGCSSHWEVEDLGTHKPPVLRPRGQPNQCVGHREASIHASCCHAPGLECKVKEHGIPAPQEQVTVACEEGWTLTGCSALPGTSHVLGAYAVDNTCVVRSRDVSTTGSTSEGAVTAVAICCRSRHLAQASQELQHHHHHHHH
test-protocol: phage spot ELISA
measurement-type: s/n ratio

>>> value_measured("TAFTSWEEYLDWVGSGRGGYELNIPR [SEQ ID NO 326]")
25.6
>>> value_measured("TAFTSWEEYLDWVGSGGDCYPHCRLV [SEQ ID NO 359]")
28.5
>>> value_measured("TAFTSWEEYLDWVGSGGREMRSVIQM [SEQ ID NO 344]")
26.6
>>> value_measured("TAFTSWEEYLDWVGSGCYPLCRVL [SEQ ID NO 364]")
31.9
